Molecular target: telomerase (Homo sapiens, UniProt O14746)
Construct: placing cells, tissues, or preferably a cellular extract or other preparation containing telomerase in contact with; endogenous in cells
Sequence (O14746 whole entry): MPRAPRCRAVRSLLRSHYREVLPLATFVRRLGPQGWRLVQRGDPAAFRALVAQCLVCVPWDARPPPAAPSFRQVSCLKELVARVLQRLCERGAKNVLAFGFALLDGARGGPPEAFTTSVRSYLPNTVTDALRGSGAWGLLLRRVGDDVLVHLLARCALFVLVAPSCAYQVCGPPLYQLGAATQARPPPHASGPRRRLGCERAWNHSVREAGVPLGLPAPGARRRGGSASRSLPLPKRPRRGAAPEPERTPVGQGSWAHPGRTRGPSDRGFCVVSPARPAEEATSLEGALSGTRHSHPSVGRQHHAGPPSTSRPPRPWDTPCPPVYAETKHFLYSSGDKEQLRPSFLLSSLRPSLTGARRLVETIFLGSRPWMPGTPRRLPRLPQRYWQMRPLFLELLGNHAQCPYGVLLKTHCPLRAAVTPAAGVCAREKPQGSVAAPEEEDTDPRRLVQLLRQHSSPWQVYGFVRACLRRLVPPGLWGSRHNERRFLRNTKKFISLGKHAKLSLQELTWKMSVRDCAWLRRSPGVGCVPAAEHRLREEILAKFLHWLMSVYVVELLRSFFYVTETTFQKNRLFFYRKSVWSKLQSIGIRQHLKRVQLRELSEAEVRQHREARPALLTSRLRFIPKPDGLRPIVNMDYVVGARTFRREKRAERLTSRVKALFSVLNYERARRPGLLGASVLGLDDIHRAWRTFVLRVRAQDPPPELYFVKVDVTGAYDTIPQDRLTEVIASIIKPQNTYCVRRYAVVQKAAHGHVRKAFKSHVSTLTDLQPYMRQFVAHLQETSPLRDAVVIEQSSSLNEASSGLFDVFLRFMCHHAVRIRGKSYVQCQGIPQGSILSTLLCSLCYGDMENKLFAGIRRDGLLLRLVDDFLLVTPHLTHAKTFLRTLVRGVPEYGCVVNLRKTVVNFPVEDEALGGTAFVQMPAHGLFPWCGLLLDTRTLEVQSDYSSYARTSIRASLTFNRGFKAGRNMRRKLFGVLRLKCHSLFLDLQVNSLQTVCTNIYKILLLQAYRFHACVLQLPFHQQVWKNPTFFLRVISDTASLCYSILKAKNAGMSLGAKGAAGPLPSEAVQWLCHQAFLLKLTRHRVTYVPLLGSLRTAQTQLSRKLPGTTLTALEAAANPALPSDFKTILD
Sequence (O60832 whole entry partner): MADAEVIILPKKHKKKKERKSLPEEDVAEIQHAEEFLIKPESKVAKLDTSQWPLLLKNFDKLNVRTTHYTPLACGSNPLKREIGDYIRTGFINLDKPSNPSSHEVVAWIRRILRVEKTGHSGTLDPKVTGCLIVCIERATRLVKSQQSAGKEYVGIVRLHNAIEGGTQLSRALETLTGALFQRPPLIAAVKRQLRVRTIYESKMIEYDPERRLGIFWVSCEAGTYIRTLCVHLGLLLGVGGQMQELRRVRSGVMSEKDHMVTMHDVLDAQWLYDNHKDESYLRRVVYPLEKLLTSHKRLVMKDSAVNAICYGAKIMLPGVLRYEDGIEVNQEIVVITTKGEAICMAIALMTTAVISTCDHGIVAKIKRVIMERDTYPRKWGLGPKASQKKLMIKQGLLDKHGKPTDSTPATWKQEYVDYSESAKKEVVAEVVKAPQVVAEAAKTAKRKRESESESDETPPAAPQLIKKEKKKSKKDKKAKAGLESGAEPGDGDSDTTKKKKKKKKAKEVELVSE
Sequence (Q9NPE3 whole entry partner): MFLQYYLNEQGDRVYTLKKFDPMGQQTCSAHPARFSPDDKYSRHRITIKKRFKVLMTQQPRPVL
Sequence (Q9NX24 whole entry partner): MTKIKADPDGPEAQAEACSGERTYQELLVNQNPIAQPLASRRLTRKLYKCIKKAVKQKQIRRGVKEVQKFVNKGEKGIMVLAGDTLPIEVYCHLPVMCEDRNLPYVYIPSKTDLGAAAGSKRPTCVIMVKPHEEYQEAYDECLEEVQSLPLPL
Sequence (Q9NY12 whole entry partner): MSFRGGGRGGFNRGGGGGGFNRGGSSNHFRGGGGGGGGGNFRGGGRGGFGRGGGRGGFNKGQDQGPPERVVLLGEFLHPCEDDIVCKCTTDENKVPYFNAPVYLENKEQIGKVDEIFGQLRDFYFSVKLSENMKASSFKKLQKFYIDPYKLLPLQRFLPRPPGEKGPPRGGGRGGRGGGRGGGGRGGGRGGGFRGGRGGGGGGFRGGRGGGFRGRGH
Test: telomerase inhibition, IC50 (Table 1)
Format: biochemical
Conditions: Table 1; approximate values only; read-out: IC50
observable: IC50 (µM)

[1] Cc1cc(N=Cc2ccc3c(N)c(-c4ccc(Cl)c(Cl)c4)oc3n2)n[nH]1
[2] Nc1c(C(=O)c2ccc(Cl)cc2Cl)sc2nc(C=O)ccc12
[3] Nc1c(C(=O)c2ccc(Br)cc2)sc2nc(C=NC3C4CC5CC(C4)CC3C5)ccc12 (centres unmarked)
Prompt: Arrange the above in rising order of IC50. Put the labels in the order asked and list them.
Completion: 3, 2, 1
(3: 4 µM, 2: 29 µM, 1: 49 µM)

[A] Nc1c(C(=O)c2ccc(Cl)c(Cl)c2)sc2nc(C=O)ccc12
[B] Nc1c(C(=O)c2ccc(Br)cc2)sc2nc(C=O)ccc12
Prompt: Which gives the smaller IC50 number: A or B ? // output: label of the selected item
Completion: A
(A: 28 µM, B: 48 µM)
